- measuredOn: FGFR1 IIIc (Homo sapiens, UniProt P11362)
- Construct: host or cells: Cos-1
- Sequence (P11362 22-822): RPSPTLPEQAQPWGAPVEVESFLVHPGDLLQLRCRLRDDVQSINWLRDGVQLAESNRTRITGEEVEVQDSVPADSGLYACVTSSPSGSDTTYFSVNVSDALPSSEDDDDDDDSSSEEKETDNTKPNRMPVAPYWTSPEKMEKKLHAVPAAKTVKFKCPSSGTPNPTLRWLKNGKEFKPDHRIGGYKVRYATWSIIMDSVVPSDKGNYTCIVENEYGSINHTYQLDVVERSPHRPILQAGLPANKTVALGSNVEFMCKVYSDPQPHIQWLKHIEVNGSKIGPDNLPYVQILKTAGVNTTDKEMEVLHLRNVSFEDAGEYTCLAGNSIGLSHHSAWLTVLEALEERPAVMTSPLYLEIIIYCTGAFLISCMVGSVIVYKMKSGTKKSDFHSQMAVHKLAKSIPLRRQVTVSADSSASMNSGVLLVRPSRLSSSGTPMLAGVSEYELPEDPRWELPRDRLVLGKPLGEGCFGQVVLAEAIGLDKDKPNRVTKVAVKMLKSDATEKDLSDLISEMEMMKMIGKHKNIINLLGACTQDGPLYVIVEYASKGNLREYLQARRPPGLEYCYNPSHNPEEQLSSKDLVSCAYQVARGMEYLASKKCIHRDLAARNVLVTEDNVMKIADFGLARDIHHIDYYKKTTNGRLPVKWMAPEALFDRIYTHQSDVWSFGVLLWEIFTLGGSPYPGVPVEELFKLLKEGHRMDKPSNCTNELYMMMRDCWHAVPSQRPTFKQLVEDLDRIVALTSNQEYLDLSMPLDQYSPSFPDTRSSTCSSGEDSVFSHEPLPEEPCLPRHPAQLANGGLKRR
- experimentalDetails: Cell based inhibition of transiently expressed FGFR1 IIIc phosphorylation via use of ECHO technology (Cos-1 cells)
- conditionParameters: Cos-1 cells, phospho-FGFR1, ECHO dosing; upper bound of bin; read-out: IC50
pIC50: −log10 of the molar value.
The following compounds are listed with their measured pIC50 values.

Lookup: Recorded pIC50 for `CNC(=O)c1cc(OC)cc(CCc2cc(Nc3ccnc(NCc4cc(C)no4)n3)n[nH]2)n1` with FGFR1 IIIc (Homo sapiens, UniProt P11362), please?
Found: > 4.52

Lookup: Recorded pIC50 for `CC(C)Oc1cc(Nc2ccnc(NCc3cc(C4CCC4)no3)n2)n[nH]1` with FGFR1 IIIc (Homo sapiens, UniProt P11362), please?
Found: > 6.70

Lookup: Recorded pIC50 for `COc1cc(Nc2cc(OC(C)C)n[nH]2)nc(NCc2cc(C)no2)n1` with FGFR1 IIIc (Homo sapiens, UniProt P11362), please?
Found: > 6.70

Lookup: Recorded pIC50 for `NC(=O)c1cc(CNc2nccc(Nc3cc(C4CC4)n[nH]3)n2)on1` with FGFR1 IIIc (Homo sapiens, UniProt P11362), please?
Found: > 6.00

Lookup: Recorded pIC50 for `CN(C)Cc1cc(CNc2nccc(Nc3cc(CCc4cccc(O)c4)n[nH]3)n2)on1` with FGFR1 IIIc (Homo sapiens, UniProt P11362), please?
Found: > 5.00
